Test: Metabolic stability in rat brain homogenates assessed as enzymatic degradation by measuring compound remaining at 0.5 mM after 90 mins by RP-HPLC analysis
Format: ADME, tissue-based
Settings: brain homogenate, read-out: Stability
readout_type: remaining at 1.5 h, 500 µM (%)
Write down the numeric answer in % and omit the unit.

>  <structure_smiles_string>
Cc1cc(O)cc(C)c1C[C@H](N)C(=O)N[C@@H]1CCCCNC(=O)C[C@@H](C(N)=O)NC(=O)[C@H](Cc2ccc(F)cc2F)NC(=O)[C@H](Cc2ccccc2)NC1=O

>  <uom>
%

>  <numeric_readout>
97

$$$$
>  <structure_smiles_string>
NC(=O)[C@@H]1CC(=O)NCCCC[C@@H](NC(=O)[C@@H](N)Cc2ccc(O)cc2)C(=O)N[C@@H](Cc2ccccc2)C(=O)N[C@@H](Cc2ccc(C(F)(F)F)cc2)C(=O)N1

>  <uom>
%

>  <numeric_readout>
97

$$$$
>  <structure_smiles_string>
NC(=O)[C@@H]1CC(=O)NCCCC[C@@H](NC(=O)[C@@H](N)Cc2ccc(O)cc2)C(=O)N[C@@H](Cc2ccc(F)cc2)C(=O)N[C@@H](Cc2ccccc2)C(=O)N1

>  <uom>
%

>  <numeric_readout>
96

$$$$
>  <structure_smiles_string>
NC(=O)[C@@H]1CC(=O)NCCCC[C@@H](NC(=O)[C@@H](N)Cc2ccc(O)cc2)C(=O)N[C@@H](Cc2ccc(C(F)(F)F)cc2)C(=O)N[C@@H](Cc2ccccc2)C(=O)N1

>  <uom>
%

>  <numeric_readout>
97

$$$$

Returns the measured remaining at 1.5 h, 500 µM for the input molecule. Input: Cc1cc(O)cc(C)c1C[C@H](N)C(=O)N[C@@H]1CCCCNC(=O)C[C@@H](C(N)=O)NC(=O)[C@H](Cc2ccccc2)NC(=O)[C@H](Cc2ccc(F)cc2F)NC1=O 94

* * *

Some molecules, each annotated with its measured EC50.
Target: Delta-type opioid receptor (Homo sapiens, UniProt P41143)
Sequence (P41143 whole entry): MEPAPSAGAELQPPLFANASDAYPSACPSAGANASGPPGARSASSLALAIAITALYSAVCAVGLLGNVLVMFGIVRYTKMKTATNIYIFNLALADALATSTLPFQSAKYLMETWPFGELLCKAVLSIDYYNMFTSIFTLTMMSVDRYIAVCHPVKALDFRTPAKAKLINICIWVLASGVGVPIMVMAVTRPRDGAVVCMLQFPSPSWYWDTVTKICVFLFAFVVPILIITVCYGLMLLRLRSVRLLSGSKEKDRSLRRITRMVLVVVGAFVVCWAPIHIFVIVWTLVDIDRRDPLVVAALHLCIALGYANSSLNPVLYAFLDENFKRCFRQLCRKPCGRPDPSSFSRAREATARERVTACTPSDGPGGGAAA
Assay: Agonist activity at human recombinant delta opioid receptor expressed in CHO cells co-expressing Galphaq66Di5 assessed as stimulation of calcium release by Fluo-4 AM dye-based fluorescence assay
Write down the numeric answer in nM and omit the unit.

Previously resolved entries follow.
>  <structure_smiles_string>
Cc1cc(O)cc(C)c1C[C@H](N)C(=O)N[C@@H]1CCCCNC(=O)C[C@@H](C(N)=O)NC(=O)[C@H](Cc2ccc(F)cc2)NC(=O)[C@H](Cc2ccccc2)NC1=O

>  <numeric_readout>
33.9

$$$$
>  <structure_smiles_string>
Cc1cc(O)cc(C)c1C[C@H](N)C(=O)N[C@@H]1CCCCNC(=O)C[C@@H](C(N)=O)NC(=O)[C@H](Cc2ccccc2)NC(=O)[C@H](Cc2ccc(C(F)(F)F)cc2)NC1=O

>  <numeric_readout>
9.33

$$$$
>  <structure_smiles_string>
NC(=O)[C@@H]1CC(=O)NCCCC[C@@H](NC(=O)[C@@H](N)Cc2ccc(O)cc2)C(=O)N[C@@H](Cc2ccccc2)C(=O)N[C@@H](Cc2ccc(C(F)(F)F)cc2)C(=O)N1

>  <numeric_readout>
162

$$$$

Kindly consider the entry below.
Kindly state the measured EC50 obtained for NC(=O)[C@@H]1CC(=O)NCCCC[C@@H](NC(=O)[C@@H](N)Cc2ccc(O)cc2)C(=O)N[C@@H](Cc2ccc(F)cc2)C(=O)N[C@@H](Cc2ccccc2)C(=O)N1 with Delta-type opioid receptor (Homo sapiens, UniProt P41143). 457

* * *

Test: Metabolic stability in rat brain homogenates assessed as enzymatic degradation by measuring compound remaining at 0.5 mM after 90 mins by RP-HPLC analysis
Format: ADME, tissue-based
Conditions: brain homogenate, read-out: Stability
Where a SMILES comes first, the peptide text is derived from it. Bridges are numbered along the chain shown (N, C = ends). [ ]: non-standard residue; d: D form. Phe(4-CF3) = N[C@@H](Cc1ccc(C(F)(F)F)cc1)C(=O)O; Dmt = Cc1cc(O)cc(C)c1C[C@H](N)C(=O)O
readout_type: remaining at 1.5 h, 500 µM (%)
Write down the numeric answer in % and omit the unit.

Previously resolved entries follow.
>  <compound>
Cc1cc(O)cc(C)c1C[C@H](N)C(=O)N[C@@H]1CCCCNC(=O)C[C@@H](C(N)=O)NC(=O)[C@H](Cc2ccc(F)cc2)NC(=O)[C@H](Cc2ccccc2)NC1=O

>  <uom>
%

>  <remaining at 1.5 h, 500 µM>
93

$$$$
>  <compound>
NC(=O)[C@@H]1CC(=O)NCCCC[C@@H](NC(=O)[C@@H](N)Cc2ccc(O)cc2)C(=O)N[C@@H](Cc2ccccc2)C(=O)N[C@@H](Cc2ccc(F)cc2F)C(=O)N1

>  <uom>
%

>  <remaining at 1.5 h, 500 µM>
94

$$$$
>  <compound>
Cc1cc(O)cc(C)c1C[C@H](N)C(=O)N[C@@H]1CCCCNC(=O)C[C@@H](C(N)=O)NC(=O)[C@H](Cc2ccccc2)NC(=O)[C@H](Cc2ccc(C(F)(F)F)cc2)NC1=O

>  <uom>
%

>  <remaining at 1.5 h, 500 µM>
96

$$$$
>  <compound>
NC(=O)[C@H](Cc1ccccc1)NC(=O)[C@H](Cc1ccccc1)NC(=O)[C@@H]1CCCN1C(=O)[C@@H](N)Cc1ccc(O)cc1 [ENDOMORPHIN 2]

>  <uom>
%

>  <remaining at 1.5 h, 500 µM>
0.61

$$$$

Kindly consider the entry below.
Returns the measured remaining at 1.5 h, 500 µM for the input compound. Input: Cc1cc(O)cc(C)c1C[C@H](N)C(=O)N[C@@H]1CCCCNC(=O)C[C@@H](C(N)=O)NC(=O)[C@H](Cc2ccc(C(F)(F)F)cc2)NC(=O)[C@H](Cc2ccccc2)NC1=O (H-[Dmt][dK]F[Phe(4-CF3)]D-NH2; lactam 2-5) 93

* * *

Assay: Metabolic stability in rat brain homogenates assessed as enzymatic degradation by measuring compound remaining at 0.5 mM after 90 mins by RP-HPLC analysis
Assay type: ADME, tissue-based
Settings: brain homogenate, read-out: Stability
readout_type: remaining at 1.5 h, 500 µM (%)
Write down the numeric answer in % and omit the unit.

Previously resolved entries follow.
>  <structure_smiles_string>
Cc1cc(O)cc(C)c1C[C@H](N)C(=O)N[C@@H]1CCCCNC(=O)C[C@@H](C(N)=O)NC(=O)[C@H](Cc2ccccc2)NC(=O)[C@H](Cc2ccc(F)cc2)NC1=O

>  <remaining at 1.5 h, 500 µM, %>
96

$$$$
>  <structure_smiles_string>
NC(=O)[C@@H]1CC(=O)NCCCC[C@@H](NC(=O)[C@@H](N)Cc2ccc(O)cc2)C(=O)N[C@@H](Cc2ccccc2)C(=O)N[C@@H](Cc2ccc(F)cc2)C(=O)N1

>  <remaining at 1.5 h, 500 µM, %>
93

$$$$

Kindly consider the entry below.
Returns the measured remaining at 1.5 h, 500 µM for the input compound. Input: NC(=O)[C@@H]1CC(=O)NCCCC[C@@H](NC(=O)[C@@H](N)Cc2ccc(O)cc2)C(=O)N[C@@H](Cc2ccc(F)cc2F)C(=O)N[C@@H](Cc2ccccc2)C(=O)N1 93

* * *

Molecular target: Delta-type opioid receptor (Homo sapiens, UniProt P41143)
Assay: Intrinsic activity at human recombinant delta opioid receptor expressed in CHO cells co-expressing Galphaq66Di5 assessed as efficacy ratio by measuring stimulation of calcium release by Fluo-4 AM dye-based fluorescence assay relative to DPDPE
Format: functional, cell-based
readout_type: Ratio
Lab note: jot down the number only; don't add units.

Previously resolved entries follow.
>  <structure_smiles_string>
NC(=O)[C@@H]1CC(=O)NCCCC[C@@H](NC(=O)[C@@H](N)Cc2ccc(O)cc2)C(=O)N[C@@H](Cc2ccccc2)C(=O)N[C@@H](Cc2ccc(C(F)(F)F)cc2)C(=O)N1

>  <Ratio>
0.27

$$$$
>  <structure_smiles_string>
NC(=O)[C@@H]1CC(=O)NCCCC[C@@H](NC(=O)[C@@H](N)Cc2ccc(O)cc2)C(=O)N[C@@H](Cc2ccc(F)cc2)C(=O)N[C@@H](Cc2ccccc2)C(=O)N1

>  <Ratio>
0.14

$$$$
>  <structure_smiles_string>
NC(=O)[C@@H]1CC(=O)NCCCC[C@@H](NC(=O)[C@@H](N)Cc2ccc(O)cc2)C(=O)N[C@@H](Cc2ccccc2)C(=O)N[C@@H](Cc2ccc(F)cc2F)C(=O)N1

>  <Ratio>
0.5

$$$$
>  <structure_smiles_string>
Cc1cc(O)cc(C)c1C[C@H](N)C(=O)N[C@@H]1CCCCNC(=O)C[C@@H](C(N)=O)NC(=O)[C@H](Cc2ccc(F)cc2)NC(=O)[C@H](Cc2ccccc2)NC1=O

>  <Ratio>
0.21

$$$$
>  <structure_smiles_string>
NC(=O)[C@@H]1CC(=O)NCCCC[C@@H](NC(=O)[C@@H](N)Cc2ccc(O)cc2)C(=O)N[C@@H](Cc2ccccc2)C(=O)N[C@@H](Cc2ccc(F)cc2)C(=O)N1

>  <Ratio>
0.2

$$$$

Returns the measured Ratio for the input compound. Input: Cc1cc(O)cc(C)c1C[C@H](N)C(=O)N[C@@H]1CCCCNC(=O)C[C@@H](C(N)=O)NC(=O)[C@H](Cc2ccccc2)NC(=O)[C@H](Cc2ccc(C(F)(F)F)cc2)NC1=O 0.28

Returns the measured Ratio for the input compound. Input: Cc1cc(O)cc(C)c1C[C@H](N)C(=O)N[C@@H]1CCCCNC(=O)C[C@@H](C(N)=O)NC(=O)[C@H](Cc2ccc(F)cc2F)NC(=O)[C@H](Cc2ccccc2)NC1=O 0.37
